Recorded values, source the supplement of paper PMC10567573.

B1: TRIM15 (parent)
chain: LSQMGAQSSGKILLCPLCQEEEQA

# Variants of: B1
# experiment_description: protein stability index of a GFP-peptide fusion (GPS, HEK-293T) (PSI 1-6); higher = more stable;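 further: lentivirally expressed fusions sorted by FACS into six bins by GFP to DsRed ratio, PSI derived from sequencing read proportions per bin multiplied by bin number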
# measurement_context: c terminus: a fixed tail appended
Label scheme for protein stability index: lower than 3 is -1, 3 and above is 1.

For orientation, consider the following solved cases.
K11Y: -1
Q7Y: 1
M4L: 1
C15M: 1
Q23C: 1

Exam item: Reported protein stability index reaches at least 3 for "E20D" ?
Marked response: 1

Exam item: Reported protein stability index reaches at least 3 for "A24Y" ?
Marked response: 1

Exam item: Reported protein stability index reaches at least 3 for "E20A" ?
Marked response: 1

Exam item: Reported protein stability index reaches at least 3 for "I12M" ?
Marked response: 1

Exam item: Reported protein stability index reaches at least 3 for "I12K" ?
Marked response: 1

Exam item: Reported protein stability index reaches at least 3 for "I12Q" ?
Marked response: 1

Exam item: Reported protein stability index reaches at least 3 for "K11V" ?
Marked response: -1

Exam item: Reported protein stability index reaches at least 3 for "E22S" ?
Marked response: -1
